sensor-assay potency score (higher = more potent) values, listed per item
system: HBM
experiment: pooled miR-30 sensor sort-seq; sequence = guide strand; note: reference of the scale not given here
condition-label: shRNA
Just the number, please.

residue-string: TCCACGTGCTGCACCGCCGCGC
result-number: -1.37
--
residue-string: TCAGGTCCCAGACCTGCGCGAT
result-number: -1.04

Q: What value of sensor-assay potency score (higher = more potent) on HBM does TTGGTGCTGGGGTACACCGTGA have?
Result: -1.01

Q: And the next one, TTTGCACGGTGAACTCGTCCTG ?
Result: 0.188

Q: And the next one, TTGCACGGTGAACTCGTCCTGC ?
Result: 0.462

* * *

system: KIAA0319
experiment: pooled miR-30 sensor sort-seq; sequence = guide strand
condition-label: shRNA
endpoint-label: sensor-assay potency score (higher = more potent)
Just the number, please.

Example entries begin here.
residue-string: TTTATTTCTATTAACAAGCATC
result-number: -1.13
--
residue-string: AAATGTATAATCTCCTTCCTGC
result-number: 0.3
--
residue-string: TTCAGCAGCTTTGAGAACCTTG
result-number: -0.33
--
residue-string: TTATAATTAGGTTATCTCCAGC
result-number: -0.767

Q: What value of sensor-assay potency score (higher = more potent) on KIAA0319 does TACATAAAACACAATCACGGTG have?
Result: -0.47

* * *

system: MATR3
experiment: pooled miR-30 sensor sort-seq; sequence = guide strand
condition-label: shRNA
endpoint-label: sensor-assay potency score (higher = more potent)
Just the number, please.

Example entries begin here.
residue-string: TTCGGTTGAACTCTCAGTCTTC
system: MATR3
result-number: 0.606
//
residue-string: TTTCTCACCATCTTCACCGGAC
system: MATR3
result-number: -0.137
//
residue-string: TTTCTCAGACAGGTCAACCTTC
system: MATR3
result-number: 0.61
//
residue-string: TTGTGTAATAATCCACTGCGGC
system: MATR3
result-number: -0.905

Q: Quick check: sensor-assay potency score (higher = more potent) of TTCTTGTTCTTTACCTTCGGTT ?
Result: -0.715

* * *

sensor-assay potency score (higher = more potent) values, listed per item
system: TTYH3
experiment: pooled miR-30 sensor sort-seq; sequence = guide strand
condition-label: shRNA
Just the number, please.

Example entries begin here.
residue-string: ATGATGACACACCAGGCCGTGC
result-number: -1.46
//
residue-string: TAGTCGGTGTCCTCGGGCCGGA
result-number: -1.53
//
residue-string: TTCAGCACCTCCTGGACGCGGA
result-number: -0.58
//
residue-string: TAGAATCCCACTGCGATGCCGG
result-number: -0.487
//
residue-string: TATTTGGCTCTCATGCTGGAGG
result-number: -0.854
//
residue-string: TAGCCCAGCCACCTGTACCAGT
result-number: -1.16

Attention now turns to another entry.
Q: Quick check: sensor-assay potency score (higher = more potent) of TTGCCGTAGAATCCCACTGCGA ?
Result: -1.44

* * *

sensor-assay potency score (higher = more potent) values, listed per item
system: ANKRD22
experiment: pooled miR-30 sensor sort-seq; sequence = guide strand
condition-label: shRNA

residue-string: TTTCTTCACAGCATAATGCAAG
system: ANKRD22
result: -0.597
--
residue-string: TACAAGAGCCTCATTCTGCTTT
system: ANKRD22
result: -0.0713
--
residue-string: TATCCAGTGAGCTCTCACCATG
system: ANKRD22
result: -1.62

Q: Quick check: sensor-assay potency score (higher = more potent) of TAGCATTAACTTCGACGCCAGC ?
Result: -1.11

Q: And the next one, TTGTCTTTGATACCATGAGGAA ?
Result: -1.48

Q: And the next one, TTATTGTGGGGTCTGCACGGGC ?
Result: -0.753

Q: And the next one, ATCTGTAGCATTAACTTCGACG ?
Result: -1.27
